Experiment: Cytotoxicity against human KBM5 cells assessed as cell viability at 100 uM by trypan blue assay
Type: cell-based
Details: read-out: Activity
parameter: viability at 100 µM (%)
Numeric only. Scale: %

Prompt: Recorded viability at 100 µM for "CCCCCCCC[C@H](CO)[C@H](O)CCOCc1ccccc1" , please?
Response: 97

Prompt: Can you check "CCCCCCCC[C@@H]1COC(C)(C)O[C@@H]1CCOCc1ccccc1" next?
Response: 97

Prompt: Query "CCCCCCCCCC(=O)N1C(=O)OC[C@@H]1Cc1ccccc1" next
Response: 97

Prompt: Can you handle "CCCCCCC[C@H](CO)[C@H](O)CCOCc1ccccc1" next?
Response: 98

Prompt: Same for "CCCCCCCC[C@H](C(=O)N1C(=O)OC[C@@H]1Cc1ccccc1)[C@H](O)CCOCc1ccccc1"
Response: 98

Prompt: Same again, this time with "CCCCCCCCCCCCCC[C@H]1COC(=O)C[C@H]1O"
Response: 95

Values were extracted from ChEMBL document CHEMBL1157701.
